# measuredOn: rat histamine H3 receptor (Rattus norvegicus, UniProt Q9QYN8)
# Construct: encoding the entire 445-amino-acid rat histamine H3 receptor; expressed in transfected cells
# Sequence (Q9QYN8 whole entry): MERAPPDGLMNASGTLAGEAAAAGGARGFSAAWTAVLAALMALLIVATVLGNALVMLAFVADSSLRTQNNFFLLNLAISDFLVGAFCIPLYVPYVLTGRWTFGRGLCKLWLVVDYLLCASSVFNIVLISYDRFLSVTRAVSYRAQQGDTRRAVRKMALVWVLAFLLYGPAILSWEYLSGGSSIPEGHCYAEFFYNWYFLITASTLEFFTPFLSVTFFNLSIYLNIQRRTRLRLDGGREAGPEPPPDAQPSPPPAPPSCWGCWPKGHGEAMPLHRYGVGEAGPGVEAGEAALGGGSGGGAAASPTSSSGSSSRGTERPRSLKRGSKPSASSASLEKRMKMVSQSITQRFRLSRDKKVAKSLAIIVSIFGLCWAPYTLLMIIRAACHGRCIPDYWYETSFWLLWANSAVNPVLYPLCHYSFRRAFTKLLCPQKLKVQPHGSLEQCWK
# assay: Rat H3 radioligand binding ([3H]-N-alpha-methylhistamine, CHO-A3 cell membranes, SPA)
# conditionsUsed: Table A, binding constant as letter class; read-out: Rat H3 Ki
# Description: This was engineered into the pIRES-neo3 mammalian expression vector, which was stably transfected into the CHO-A3 cell line (Euroscreen, Belgium), followed by clonal selection by limiting dilution. […] Membranes were resuspended in 50 mM Tris HCl (pH 7.4), 5 mM MgCl2, 0.1% BSA. […] Non-specific binding was determined in the presence of 10 μM clobenpropit. Radioligand bound to receptor, and therefore in proximity to the scintillation beads, was measured using a MicroBeta scintillation counter.
pKi: −log10 of the molar value.
Here, each record is paired with measured pKi data.
valueKind: pKi

molecule=C[C@@H]1CCCN1CCCOc1ccc(-c2ccc(=O)n(C)n2)cc1 measuredon="rat histamine H3 receptor (Rattus norvegicus, UniProt Q9QYN8)" valuekind=pKi value="7.00 to 10.00"
molecule=Cc1cc(-c2ccc(OCCCN3CCCCC3)cc2)nn(C(C)C)c1=O measuredon="rat histamine H3 receptor (Rattus norvegicus, UniProt Q9QYN8)" valuekind=pKi value="6.30 to 7.00"
molecule=CCCn1nc(-c2ccc(OCCCN3CCC(N(C)C)CC3)cc2)c2sccc2c1=O measuredon="rat histamine H3 receptor (Rattus norvegicus, UniProt Q9QYN8)" valuekind=pKi value="6.30 to 7.00"
molecule=CC(C)n1nc(-c2ccc(OCCCN3[C@H](C)CC[C@H]3C)cc2)c2sccc2c1=O measuredon="rat histamine H3 receptor (Rattus norvegicus, UniProt Q9QYN8)" valuekind=pKi value="6.30 to 7.00"
molecule="CC1CCC(C)N1CCCOc1ccc(-c2nn(C(C)C)c(=O)c3ccsc23)cc1 (stereo not drawn)" measuredon="rat histamine H3 receptor (Rattus norvegicus, UniProt Q9QYN8)" valuekind=pKi value="6.30 to 7.00"
molecule="CN1N=C(c2ccc(OCCCN3CCCCC3)cc2)C2CCCC2C1=O (stereo not drawn)" measuredon="rat histamine H3 receptor (Rattus norvegicus, UniProt Q9QYN8)" valuekind=pKi value="7.00 to 10.00"
molecule=Cn1nc(-c2ccc(OCCCN3CCCCC3)cc2)cc(Cc2ccccc2)c1=O measuredon="rat histamine H3 receptor (Rattus norvegicus, UniProt Q9QYN8)" valuekind=pKi value="6.30 to 7.00"
molecule=CC(C)N1CCC(COc2ccc(-c3ccc(=O)n(C)n3)cc2)CC1 measuredon="rat histamine H3 receptor (Rattus norvegicus, UniProt Q9QYN8)" valuekind=pKi value="6.30 to 7.00"
molecule=Cc1cc(-c2ccc(OCCCN3CCC[C@H]3C)cc2)nn(C(C)C)c1=O measuredon="rat histamine H3 receptor (Rattus norvegicus, UniProt Q9QYN8)" valuekind=pKi value="7.00 to 10.00"
molecule=CCn1nc(-c2ccc(OCCCN3CCC[C@H]3C)cc2)ccc1=O measuredon="rat histamine H3 receptor (Rattus norvegicus, UniProt Q9QYN8)" valuekind=pKi value="7.00 to 10.00"
molecule=Cc1cc(-c2ccc(OCCCN3CCCCC3)cc2)nn(Cc2ccccc2)c1=O measuredon="rat histamine H3 receptor (Rattus norvegicus, UniProt Q9QYN8)" valuekind=pKi value="6.30 to 7.00"
molecule=CC(C)n1nc(-c2ccc(OCCCN3CCC[C@H]3C)cc2)c2sccc2c1=O measuredon="rat histamine H3 receptor (Rattus norvegicus, UniProt Q9QYN8)" valuekind=pKi value="7.00 to 10.00"
molecule=CCCn1nc(-c2ccc(OCCCN3[C@H](C)CC[C@H]3C)cc2)c2sccc2c1=O measuredon="rat histamine H3 receptor (Rattus norvegicus, UniProt Q9QYN8)" valuekind=pKi value="6.30 to 7.00"
molecule=CCCn1nc(-c2ccc(OCCCN3CCC(C)CC3)cc2)c2sccc2c1=O measuredon="rat histamine H3 receptor (Rattus norvegicus, UniProt Q9QYN8)" valuekind=pKi value="7.00 to 10.00"
molecule=Cn1nc(-c2ccc(OCCCN3CCCCC3)cc2)ccc1=O measuredon="rat histamine H3 receptor (Rattus norvegicus, UniProt Q9QYN8)" valuekind=pKi value="6.30 to 7.00"
molecule=C[C@@H]1CCCN1CCCOc1ccc(-c2ccc(=O)n(-c3ccccc3)n2)cc1F measuredon="rat histamine H3 receptor (Rattus norvegicus, UniProt Q9QYN8)" valuekind=pKi value="7.00 to 10.00"
molecule=C[C@@H]1CCCN1CCCOc1ccc(-n2ncccc2=O)cc1 measuredon="rat histamine H3 receptor (Rattus norvegicus, UniProt Q9QYN8)" valuekind=pKi value="6.00 to 6.30"
molecule=CN1CCC(COc2ccc(-c3ccc(=O)n(C)n3)cc2)CC1 measuredon="rat histamine H3 receptor (Rattus norvegicus, UniProt Q9QYN8)" valuekind=pKi value="6.00 to 6.30"

---

# measuredOn: rat histamine H3 receptor (Rattus norvegicus)
# Construct: encoding the entire 445-amino-acid rat histamine H3 receptor; expressed in transfected cells
# assay: Rat H3 radioligand binding ([3H]-N-alpha-methylhistamine, CHO-A3 cell membranes, SPA)
# conditionsUsed: Table A, binding constant as letter class; read-out: Rat H3 Ki
pKi: −log10 of the molar value.
Here, each record is paired with measured pKi data.
valueKind: pKi

compound=Cn1nc(-c2ccc(OCCCN3CCCCC3)cc2)c2ccccc2c1=O valuekind=pKi value="7.00 to 10.00"
compound=Cn1nc(-c2ccc(OCCCN3CCCC3)cc2)c2ccccc2c1=O valuekind=pKi value="7.00 to 10.00"
compound=C[C@@H]1CCCN1CCCOc1ccc(-c2nn(C)c(=O)c3c2CCC3)cc1 valuekind=pKi value="7.00 to 10.00"
compound=Cn1nc(-c2ccc(OCC3CCN(C4CCCC4)CC3)cc2)ccc1=O valuekind=pKi value="6.30 to 7.00"
compound=CC(C)n1nc(-c2ccc(OCCCN3CCCCC3)cc2)ccc1=O valuekind=pKi value="7.00 to 10.00"
compound=C[C@@H]1CCCN1CCCOc1ccc(-c2ccc(=O)n(-c3cc(Cl)cc(Cl)c3)n2)cc1 valuekind=pKi value="7.00 to 10.00"
compound=C[C@@H]1CCCN1CCCOc1ccc(-c2ccc(=O)n(Cc3ccccc3)n2)cc1 valuekind=pKi value="7.00 to 10.00"
compound="C[C@@H]1CCCN1CCCOc1ccc(C2=NN(C)C(=O)C3CCCC23)cc1 (stereo partly drawn)" valuekind=pKi value="7.00 to 10.00"
compound=Cn1nc(-c2ccc(OCC3CCN(CC4CC4)CC3)cc2)ccc1=O valuekind=pKi value="< 6.00"

---

# measuredOn: rat histamine H3 receptor (Rattus norvegicus)
# Construct: encoding the entire 445-amino-acid rat histamine H3 receptor; expressed in transfected cells
# assay: Rat H3 radioligand binding ([3H]-N-alpha-methylhistamine, CHO-A3 cell membranes, SPA)
# conditionsUsed: Table B, binding constant as letter class; read-out: rat H3 Ki
pKi: −log10 of the molar value.
valueKind: pKi

molecule=O=c1ccc(-c2ccc(OC3CCN(C4CCCC4)CC3)nc2)n[nH]1 value="7.00 to 10.00"
molecule=COCn1ncc(-c2ccc(OCCCN3CCC[C@H]3C)cc2)cc1=O value="7.00 to 10.00"
molecule="CC1CC(=O)N(c2ccccn2)N=C1c1ccc(OC2CCN(C3CCC3)CC2)cc1 (centres unmarked)" value="7.00 to 10.00"
molecule=CC(C)N1CCC(COc2ccc(-c3ccc(=O)[nH]n3)cn2)CC1 value="6.00 to 6.30"
molecule=C[C@@H]1CCCN1CCCOc1ccc(-c2ccc(=O)n(CCF)n2)cc1 value="7.00 to 10.00"

---

# measuredOn: human H3 receptor (Homo sapiens)
# Construct: expressed in transfected cells
# Sequence (Q9Y5N1 whole entry): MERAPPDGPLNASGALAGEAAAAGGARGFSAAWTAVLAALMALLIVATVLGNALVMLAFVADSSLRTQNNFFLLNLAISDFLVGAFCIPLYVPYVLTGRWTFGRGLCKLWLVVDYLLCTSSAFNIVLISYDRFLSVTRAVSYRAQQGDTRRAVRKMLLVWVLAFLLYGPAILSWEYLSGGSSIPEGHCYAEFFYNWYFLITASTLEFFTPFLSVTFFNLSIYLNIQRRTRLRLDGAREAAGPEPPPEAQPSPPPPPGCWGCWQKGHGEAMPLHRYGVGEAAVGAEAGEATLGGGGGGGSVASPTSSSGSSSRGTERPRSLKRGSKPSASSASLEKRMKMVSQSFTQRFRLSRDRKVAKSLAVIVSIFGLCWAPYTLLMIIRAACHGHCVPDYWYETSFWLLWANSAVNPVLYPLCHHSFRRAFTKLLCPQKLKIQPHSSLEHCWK
# assay: Human H3 radioligand binding ([3H]-N-alpha-methylhistamine, CHO cell membranes, SPA)
# conditionsUsed: Table B, binding constant as letter class
valueKind: Ki

compound="C[C@@H]1CCCN1CCCOc1ccc(-c2ccc(=O)n(-c3ncccn3)n2)cc1 [Example 138]" valuekind=Ki value="0.1 to 100 nM"
compound="O=c1ccc(-c2ccc(O[C@@H]3CCN(C4CCC4)C3)cc2)n[nH]1 [Example 161]" valuekind=Ki value="> 1000 nM"
compound="O=c1cc(-c2ccc(OC3CCN(C4CCC4)CC3)cc2)cn[nH]1 [Example 106]" valuekind=Ki value="0.1 to 100 nM"
compound="O=c1ccc(-c2ccc(OC[C@H](O)CN3CCCCC3)cc2)n[nH]1 [Example 259]" valuekind=Ki value="101 to 500 nM"
compound="C[C@@H]1CCCN1CCCOc1c(Br)cc(-c2ccc(=O)[nH]n2)cc1Br [Example 185]" valuekind=Ki value="0.1 to 100 nM"
compound="CC1CC(c2ccc(OCCCN3CCC[C@H]3C)cc2)=NNC1=O (stereo partly drawn) [Example 121]" valuekind=Ki value="0.1 to 100 nM"
compound="O=C1CCC(c2ccc(O[C@@H]3CCN(C4CCCC4)C3)cc2)=NN1 [Example 162]" valuekind=Ki value="501 to 1000 nM"
compound="C[C@@H]1CCCN1CCCOc1ccc(C2=NNC(=O)C(C)(C)C2)cc1 [Example 179]" valuekind=Ki value="0.1 to 100 nM"
compound="C[C@@H]1CCCN1CCCOc1ccc(-c2ccc(=O)[nH]n2)c(F)c1 [Example 214]" valuekind=Ki value="0.1 to 100 nM"
